The measured values listed here are drawn from the NIST ThermoML archive (doi:10.1021/je700316s).

settings: 298.15 K; 101.33 kPa; Liquid; Pycnometric method
measurement-kind: mass density (kg/m3)
Output spec: scalar in kg/m3, unitless text.

CC(C)O [propan-2-ol] : 780.8
CCO [ethanol] : 785.2
CCCO [propan-1-ol] : 799.6

// query mass density value for entry CCCCO [butan-1-ol]
805.8
